test system: mast cell degranulation; assay: Serotonin release assay (inhibition of mast cell degranulation); format: cell-based; conditions: 50 μM; Table 4; average of duplicates
// 0.0 strictly below 20% in AVERAGE % RELEASE; 1.0 otherwise

{"molecule": "C=CCCCCCCCCCCCn1c(=O)c2c(ncn2C)n(C)c1=O", "measured_on": "mast cell degranulation", "category": 1.0}
{"molecule": "C/C=C/CCCn1c(=O)c2c(ncn2C)n(C)c1=O [CT1581, 1-(trans-4-Hexenyl)-3,7-dimethylxanthine]", "measured_on": "mast cell degranulation", "category": 1.0}
{"molecule": "C=CCCCCn1c(=O)n(C)c(=O)c2ccccc21", "measured_on": "mast cell degranulation", "category": 0.0}
{"molecule": "C=CCCCCN1C(=O)CCN(C)C1=O [CT1812, 3-(5-hexenyl)-1-methyldihydrouracil]", "measured_on": "mast cell degranulation", "category": 1.0}
{"molecule": "C=CCCCCn1c(=O)c2c(ncn2COC(=O)C(C)(C)C)n(C)c1=O", "measured_on": "mast cell degranulation", "category": 0.0}
{"molecule": "CCCCC/C=C\\C/C=C\\CCCCCCCCn1c(=O)c2c(ncn2C)n(C)c1=O", "measured_on": "mast cell degranulation", "category": 1.0}

###

tested on: mast cell degranulation; test: Serotonin release assay (inhibition of mast cell degranulation); type: cell-based; conditions: 50 μM; Table 4; average of duplicates
measure: AVERAGE % RELEASE

{"molecule": "CC(C)=CCC[C@H](C)CCn1c(=O)c2c(ncn2C)n(C)c1=O [CT1596S]", "val": "19.71%"}
{"molecule": "CC/C=C\\CCCCCn1c(=O)c2c(ncn2C)n(C)c1=O [CT1508, 1-(6-cis-nonenyl)-3,7-dimethylxanthine]", "val": "19.94%"}
{"molecule": "CC/C=C\\CCCCCn1c(=O)c2[nH]cnc2n(C)c1=O [CT1442, 1-(6-cis-nonenyl)-3-methylxanthine]", "val": "19.49%"}
{"molecule": "C=CCCCCCCCn1c(=O)ccn(C)c1=O [CT1817, 3-(8-nonenyl)1-methyluracil]", "val": "20.12%"}
